Target: Phosphatidylinositol 4,5-bisphosphate 3-kinase catalytic subunit gamma isoform (Homo sapiens)
Sequence (P48736 whole entry, canonical isoform): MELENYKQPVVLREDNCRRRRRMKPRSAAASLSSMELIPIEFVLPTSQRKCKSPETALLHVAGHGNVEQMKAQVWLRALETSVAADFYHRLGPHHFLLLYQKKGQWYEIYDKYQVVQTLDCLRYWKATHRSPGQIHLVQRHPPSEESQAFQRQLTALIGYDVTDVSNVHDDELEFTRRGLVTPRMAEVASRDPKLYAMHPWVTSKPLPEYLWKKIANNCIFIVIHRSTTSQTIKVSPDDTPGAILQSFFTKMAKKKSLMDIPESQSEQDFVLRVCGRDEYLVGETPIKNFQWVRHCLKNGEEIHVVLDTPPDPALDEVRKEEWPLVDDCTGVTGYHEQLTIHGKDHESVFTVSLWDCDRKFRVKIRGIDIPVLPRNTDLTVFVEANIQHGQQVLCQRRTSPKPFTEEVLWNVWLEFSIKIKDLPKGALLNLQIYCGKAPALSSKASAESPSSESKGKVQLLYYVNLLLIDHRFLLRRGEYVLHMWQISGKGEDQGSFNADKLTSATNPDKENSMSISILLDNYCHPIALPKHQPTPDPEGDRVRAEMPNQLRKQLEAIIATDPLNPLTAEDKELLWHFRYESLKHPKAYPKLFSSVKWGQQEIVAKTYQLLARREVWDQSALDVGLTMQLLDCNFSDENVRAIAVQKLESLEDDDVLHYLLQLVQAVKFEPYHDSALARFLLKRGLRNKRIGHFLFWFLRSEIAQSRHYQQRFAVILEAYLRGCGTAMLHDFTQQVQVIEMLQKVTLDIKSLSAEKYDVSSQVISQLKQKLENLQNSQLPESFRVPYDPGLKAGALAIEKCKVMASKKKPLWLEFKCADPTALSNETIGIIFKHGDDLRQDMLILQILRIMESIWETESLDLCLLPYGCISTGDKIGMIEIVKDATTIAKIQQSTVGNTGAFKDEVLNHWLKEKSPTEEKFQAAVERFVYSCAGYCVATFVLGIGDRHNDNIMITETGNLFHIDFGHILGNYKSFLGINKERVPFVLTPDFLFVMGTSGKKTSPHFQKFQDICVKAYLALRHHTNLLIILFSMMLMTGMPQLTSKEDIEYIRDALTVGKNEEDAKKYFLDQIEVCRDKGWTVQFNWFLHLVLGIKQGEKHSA
Experiment: PI3K-gamma Scintillation Proximity Assay: Materials: [γ-33P]ATP (10 mCi/mL) and Wheat Germ Agglutinin (WGA) YSi SPA Scintillation Beads was purchased from Perkin Elmer (Waltham, Mass.). Lipid kinase substrate, D-myo-Phosphatidylinositol 4,5-bisphosphate (PtdIns(4,5)P2)D (+)-sn-1,2-di-O-octanoylglyceryl, 3-O-phospho linked (PIP2), CAS 204858-53-7, was purchased from Echelon Biosciences (Salt Lake City, Utah). PI3Kγ (p110γ) Recombinant Human Protein was purchased from Life technology (Grand Island, N.Y.). ATP, MgCl2, DTT, EDTA, MOPS and CHAPS were purchased from Sigma Aldrich (St. Louis, Mo.).The kinase reaction was conducted in polystyrene 384-well Greiner Bio-one white plate from Thermo Fisher Scientific in a final volume of 25 μL. Inhibitors were first diluted serially in DMSO and added to the plate wells before the addition of other reaction components. The final concentration of DMSO in the assay was 2%. The PI3Kγ assay was carried out at room temperature in 20 mM MOPS, pH 6.7, 10 mM MgCl2, 5 mM DTT and CHAPS 0.03%. Reactions were initiated by the addition of ATP, the final reaction mixture consisted of 20 μM PIP2, 2 μM ATP, 0.5 μCi [γ-33P] ATP, 13 nM PI3Kγ. Reactions were incubated for 120 min and terminated by the addition of 40 μL SPA beads suspended in quench buffer: 163 mM potassium phosphate pH 7.8, 20% glycerol, 25 mM EDTA. The final concentration of SPA beads is 1.0 mg/mL. After the plate sealing, plates were shaken overnight at room temperature and centrifuged at 1500 rpm for 10 min, the radioactivity of the product was determined by scintillation counting on Topcount (Perkin-Elmer). IC50 determination was performed by fitting the curve of percent of the solvent control activity versus the log of the inhibitor concentration using the GraphPad Prism 6.0 software.
pIC50: −log10 of the molar value.
measured.endpoint: pIC50

Given the entry Cc1ncc(-c2nc(-c3cc(C(O)(C(N)=O)C(F)(F)F)ccc3C)cnc2N)s1 (stereo unspecified) , report its measured pIC50.
> 7.00

These entries and their values trace back to ChEMBL document CHEMBL5728563.
